ASSAY SYSTEM: Cathepsin K (Homo sapiens, UniProt P43235)
Sequence (P43235 115-329, species assumed): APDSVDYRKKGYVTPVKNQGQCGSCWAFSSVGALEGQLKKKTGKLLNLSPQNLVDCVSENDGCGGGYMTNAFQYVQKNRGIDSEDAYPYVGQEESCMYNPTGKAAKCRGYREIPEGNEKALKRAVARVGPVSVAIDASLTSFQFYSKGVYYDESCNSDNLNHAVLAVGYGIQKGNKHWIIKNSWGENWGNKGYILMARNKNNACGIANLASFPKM
EXPERIMENT: Cathepsin K inhibition assay (fluorogenic peptide substrate); selectivity ratio vs cathepsin S
Type: biochemical
RUN PARAMETERS: ratio of cathepsin K inhibition constant to cathepsin S inhibition constant; Table II
MEASURED PARAMETER: Selectivity for Cat. S over Cat. K

- COMPOUND: "COc1ccc(NCCNC(=O)[C@H](CCC2CCCCC2)NC(=O)c2ccc3ncsc3c2)cc1"
  MEASURED PARAMETER: "Selectivity for Cat. S over Cat. K"
  EXPERIMENTAL RESULT: "+++ (+++, >1000)"
- COMPOUND: "O=C(N[C@@H](CC1CCCCC1)C(=O)NCCNc1ccc(OC(F)(F)F)cc1)c1ccc(-c2ccccc2)cc1"
  MEASURED PARAMETER: "Selectivity for Cat. S over Cat. K"
  EXPERIMENTAL RESULT: "+ (+, >10)"
- COMPOUND: "N#Cc1cccc(C(=O)N[C@@H](CC2CCCCC2)C(=O)NCCNc2ccc(F)cc2)c1 [Compound 324]"
  MEASURED PARAMETER: "Selectivity for Cat. S over Cat. K"
  EXPERIMENTAL RESULT: "++ (++, >100)"
- COMPOUND: "COc1ccc(NCCNC(=O)[C@H](Cc2ccc(Oc3ccc(Cl)c(Cl)c3)cc2)NC(=O)c2cccc(C)c2)cc1"
  MEASURED PARAMETER: "Selectivity for Cat. S over Cat. K"
  EXPERIMENTAL RESULT: "++ (++, >100)"

Query: Recorded Selectivity for Cat. S over Cat. K for COc1ccc(NCCNC(=O)C(NC(=O)c2cccc(C)c2)C(C)c2ccccc2)cc1 (stereo not drawn) [Compound 268] , please?
Result: ++ (++, >100)

Query: Recorded Selectivity for Cat. S over Cat. K for COc1ccc(NCCNC(=O)[C@H](Cc2ccccc2C(F)(F)F)NC(=O)c2cccc(C)c2)cc1 , please?
Result: +++ (+++, >1000)

Query: Recorded Selectivity for Cat. S over Cat. K for CCCc1ccc(C(=O)N[C@@H](CC2CCCCC2)C(=O)NCCNc2ccc(OC)cc2)cc1 , please?
Result: + (+, >10)

Query: Recorded Selectivity for Cat. S over Cat. K for O=C(N[C@@H](CC1CCCCC1)C(=O)NCCNc1ccc(OC(F)(F)F)cc1)c1ccc(-c2cccc(F)c2)s1 , please?
Result: ++ (++, >100)

Query: Recorded Selectivity for Cat. S over Cat. K for COc1ccc(NCCNC(=O)[C@H](Cc2ccccc2)NC(=O)NCCc2ccccc2)cc1 , please?
Result: + (+, >10)

Query: Recorded Selectivity for Cat. S over Cat. K for COc1ccc(NCCNC(=O)[C@H](CCC2CCCCC2)NC(=O)c2cccc(-c3csc(C)n3)c2)cc1 , please?
Result: +++ (+++, >1000)

Query: Recorded Selectivity for Cat. S over Cat. K for COc1ccc(NCCNC(=O)[C@H](CC2CCCCC2)NC(=O)c2cc(-c3ccc(Cl)cc3)cs2)cc1 , please?
Result: ++ (++, >100)

Query: Recorded Selectivity for Cat. S over Cat. K for COc1ccc(NCCNC(=O)[C@H](CC2CCCCC2)NC(=O)c2ccc(-c3cccc(OC)c3)cc2)cc1 , please?
Result: +++ (+++, >1000)

Query: Recorded Selectivity for Cat. S over Cat. K for COc1ccc(NCCNC(=O)[C@H](Cc2ccc(-c3ccc(OC)c(OC)c3)cc2)NC(=O)c2cccc(C)c2)cc1 , please?
Result: ++ (++, >100)

Query: Recorded Selectivity for Cat. S over Cat. K for COc1ccc(NCCNC(=O)[C@H](CC2CCCCC2)NC(=O)c2ccc(Br)s2)cc1 , please?
Result: + (+, >10)

Query: Recorded Selectivity for Cat. S over Cat. K for Cc1nc(-c2ccc(C(=O)N[C@@H](CC3CCCCC3)C(=O)NCCNc3ccc(OC(F)(F)F)cc3)cc2)no1 [Compound 28] , please?
Result: + (+, >10)
